System: rodent lifetime carcinogenesis bioassay, tumor incidence TD50
experiment: carcinogenic potency in animals, long-term in vivo studies, CPDB compilation (AID 1745844)
conditions.used: rat; strain Fischer 344; males; by gavage; site: esophagus; lesion: squamous-cell carcinoma; dosed 94 weeks; study length 104 weeks
readout.name: TD50

Incoming: Fetch value of TD50 on rodent lifetime carcinogenesis bioassay, tumor incidence TD50 for `CC(C)=CCl` .
Outgoing: 143 mg/kg/day

----------
System: rodent lifetime carcinogenesis bioassay, tumor incidence TD50
experiment: carcinogenic potency in animals, long-term in vivo studies, CPDB compilation (AID 1745844)
conditions.used: rat; strain Fischer 344; males; inhaled; site: testis; lesion: interstitial-cell adenoma; dosed 102 weeks; study length 104 weeks
Active and inactive are the calls of the source. The rule behind the calls is not given here.
readout.name: TD50

Incoming: Note TD50 for the molecule shown: `CC(C)O`
Outgoing: 46.4 mg/kg/day (inactive)

----------
Tested on: rodent lifetime carcinogenesis bioassay, tumor incidence TD50
experiment: carcinogenic potency in animals, long-term in vivo studies, CPDB compilation (AID 1745844)
conditions.used: rat; strain Fischer 344; males; by gavage; site: skin; lesion: basal-cell carcinoma + keratoacanthoma + squamous-cell carcinoma + squamous-cell papilloma + trichoepithelioma; dosed 94 weeks; study length 104 weeks
readout.name: TD50 (mg/kg/day)
Numbers only, in mg/kg/day.

Incoming: Please indicate TD50 recorded for `ClCC(Cl)CCl`
Outgoing: 20.8

----------
System: rodent lifetime carcinogenesis bioassay, tumor incidence TD50
experiment: carcinogenic potency in animals, long-term in vivo studies, CPDB compilation (AID 1745844)
conditions.used: rat; strain Fischer 344; females; by gavage; site: forestomach; lesion: squamous-cell carcinoma + squamous-cell papilloma; dosed 100 weeks; study length 104 weeks
readout.name: TD50

Incoming: Using the record for `CC(C)=CCl` , state its measured TD50.
Outgoing: 95.2 mg/kg/day

----------
Test system: rodent lifetime carcinogenesis bioassay, tumor incidence TD50
experiment: carcinogenic potency in animals, long-term in vivo studies, CPDB compilation (AID 1745844)
conditions.used: rat; strain Fischer 344; males; in feed; site: urinary bladder; lesion: leiomyosarcoma + leiomyoma + squamous-cell carcinoma + squamous-cell papilloma + transitional-cell carcinoma + transitional-cell p; dosed 103 weeks; study length 104 weeks
readout.name: TD50 (mg/kg/day)
Answers are plain numbers, in mg/kg/day.

Incoming: Write down measured TD50 (rodent lifetime carcinogenesis bioassay, tumor incidence TD50) for this compound. `Nc1ccc(N)c2c1C(=O)c1c(N)ccc(N)c1C2=O`
Outgoing: 89.3

----------
System: rodent lifetime carcinogenesis bioassay, tumor incidence TD50
experiment: carcinogenic potency in animals, long-term in vivo studies, CPDB compilation (AID 1745844)
conditions.used: rat; strain BR 46; males; by gavage; site: any site (literature study); lesion: malignant tumor; dosed 52 weeks; study length 104 weeks
readout.name: TD50

Incoming: Quick one: give measured TD50 for `CS(=O)(=O)OCCCCOS(C)(=O)=O`
Outgoing: 0.117 mg/kg/day

----------
Test system: rodent lifetime carcinogenesis bioassay, tumor incidence TD50
experiment: carcinogenic potency in animals, long-term in vivo studies, CPDB compilation (AID 1745844)
conditions.used: mouse; strain B6C3F1; males; in feed; site: lung; lesion: carcinoma; dosed 100 weeks; study length 100 weeks
readout.name: TD50 (mg/kg/day)
Give bare numbers, in mg/kg/day.

Incoming: Note down TD50 recorded for `Cn1cnc([N+](=O)[O-])c1Sc1ncnc2nc[nH]c12`
Outgoing: 55.9

----------
Hi there, I'd appreciate the recorded TD50 for every entry that follows.
Tested on: rodent lifetime carcinogenesis bioassay, tumor incidence TD50
experiment: carcinogenic potency in animals, long-term in vivo studies, CPDB compilation (AID 1745844)
conditions.used: mouse; strain Swiss; females; in feed; site: forestomach; lesion: squamous-cell papilloma; dosed 46 weeks; study length 55 weeks

Completed entries (count: 2):
CC(=O)Nc1nnc(-c2ccc([N+](=O)[O-])o2)s1	14.1 mg/kg/day
O=C(Nc1nc(-c2ccc([N+](=O)[O-])o2)cs1)C(F)(F)F	43.5 mg/kg/day

Batch request: TD50 for each of the following compounds.
1. NNc1nc(-c2ccc([N+](=O)[O-])o2)cs1
2. Nc1nc(-c2ccc([N+](=O)[O-])o2)cs1

Outgoing:
16.4 mg/kg/day
11.5 mg/kg/day

----------
Please go through the items and note down their TD50.
Tested on: rodent lifetime carcinogenesis bioassay, tumor incidence TD50
experiment: carcinogenic potency in animals, long-term in vivo studies, CPDB compilation (AID 1745844)
conditions.used: mouse; strain CD-1 HaM/ICR; females; in feed; site: lung; lesion: several types; types named in the paper; dosed 77 weeks; study length 94 weeks
Activity calls are given as the source filed them. How the calls were made is not given here.

I need TD50 for every entry listed below, if you could help.
1. Nc1nc(N)nc(-c2ccccc2)n1
2. O=[N+]([O-])c1ccc(Cl)c([N+](=O)[O-])c1

Outgoing:
9340 mg/kg/day (inactive)
150 mg/kg/day (inactive)

----------
Test system: rodent lifetime carcinogenesis bioassay, tumor incidence TD50
experiment: carcinogenic potency in animals, long-term in vivo studies, CPDB compilation (AID 1745844)
conditions.used: mouse; strain C3HeB/FeJ; females; in feed; site: ovary; lesion: tubular adenoma; dosed 78 weeks; study length 78 weeks
readout.name: TD50 (mg/kg/day)
Give bare numbers, in mg/kg/day.

Incoming: Find the measured TD50 of `CC/C(=C(/CC)c1ccc(O)cc1)c1ccc(O)cc1` and report it.
Outgoing: 0.329

----------
System: rodent lifetime carcinogenesis bioassay, tumor incidence TD50
experiment: carcinogenic potency in animals, long-term in vivo studies, CPDB compilation (AID 1745844)
conditions.used: rat; strain F344/DuCrj; males; in feed; site: stomach, glandular; lesion: adenoma; dosed 51 weeks; study length 51 weeks
readout.name: TD50

Incoming: Give the measured TD50 for `COc1cccc(O)c1O`
Outgoing: 48.7 mg/kg/day

----------
Test system: rodent lifetime carcinogenesis bioassay, tumor incidence TD50
experiment: carcinogenic potency in animals, long-term in vivo studies, CPDB compilation (AID 1745844)
conditions.used: rat; strain Fischer 344; males; by gavage; site: forestomach; lesion: one or several types; types not named; dosed 28 weeks; study length 104 weeks
readout.name: TD50

Incoming: Look up TD50 of `CN(N=O)C(N)=O` and report it.
Outgoing: 0.0927 mg/kg/day

----------
System: rodent lifetime carcinogenesis bioassay, tumor incidence TD50
experiment: carcinogenic potency in animals, long-term in vivo studies, CPDB compilation (AID 1745844)
conditions.used: rat; strain Colworth (Wistar derived); males; in drinking water; site: lung; lesion: several types; types named in the paper; dosed 176 weeks; study length 176 weeks
readout.name: TD50 (mg/kg/day)
Numbers only, in mg/kg/day.

Incoming: Recall the reported TD50 of `CN(C)N=O` when tested on rodent lifetime carcinogenesis bioassay, tumor incidence TD50.
Outgoing: 1.64

----------
Test system: rodent lifetime carcinogenesis bioassay, tumor incidence TD50
experiment: carcinogenic potency in animals, long-term in vivo studies, CPDB compilation (AID 1745844)
conditions.used: rat; strain Fischer 344; males; in feed; site: liver; lesion: hepatocellular adenoma; dosed 52 weeks; study length 104 weeks
readout.name: TD50 (mg/kg/day)
Give bare numbers, in mg/kg/day.

Incoming: Return reported TD50 for target or system rodent lifetime carcinogenesis bioassay, tumor incidence TD50, item `Cc1cccc(Nc2cc(Cl)nc(SCC(=O)O)n2)c1C` .
Outgoing: 84.3

----------
Tested on: rodent lifetime carcinogenesis bioassay, tumor incidence TD50
experiment: carcinogenic potency in animals, long-term in vivo studies, CPDB compilation (AID 1745844)
conditions.used: rat; strain Wistar; both sexes; in feed; site: liver; lesion: hepatocellular carcinoma; dosed 95 weeks; study length 104 weeks
Calls of active or inactive are those of the source. No rule for the calls is given here.
readout.name: TD50

Incoming: Item `CCCCOCCOCCOCc1cc2c(cc1CCC)OCO2` : provide TD50
Outgoing: 26100 mg/kg/day (inactive)

----------
Tested on: rodent lifetime carcinogenesis bioassay, tumor incidence TD50
experiment: carcinogenic potency in animals, long-term in vivo studies, CPDB compilation (AID 1745844)
conditions.used: hamster; strain Syrian Golden; females; in drinking water; site: liver; lesion: several types; types named in the paper; dosed 67 weeks; study length 67 weeks
readout.name: TD50

Incoming: For the molecule `CNNC` , give its measured TD50 value.
Outgoing: 0.917 mg/kg/day

----------
Tested on: rodent lifetime carcinogenesis bioassay, tumor incidence TD50
experiment: carcinogenic potency in animals, long-term in vivo studies, CPDB compilation (AID 1745844)
conditions.used: rat; strain Fischer 344; males; by gavage; site: liver; lesion: hepatocellular adenoma; dosed 71 weeks; study length 71 weeks
readout.name: TD50

Incoming: Look up and report measured TD50 (rodent lifetime carcinogenesis bioassay, tumor incidence TD50) for the following molecule: `C=C1C/C(=C/C)C(=O)O[C@@H]2CCN3CC=C(COC(=O)[C@@]1(O)CO)[C@H]23`
Outgoing: 0.584 mg/kg/day

----------
Tested on: rodent lifetime carcinogenesis bioassay, tumor incidence TD50
experiment: carcinogenic potency in animals, long-term in vivo studies, CPDB compilation (AID 1745844)
conditions.used: mouse; strain Swiss albino; males; by gavage; site: preputial gland; lesion: squamous-cell carcinoma; dosed 53 weeks; study length 119 weeks
readout.name: TD50 (mg/kg/day)
Give bare numbers, in mg/kg/day.

Incoming: Please indicate recorded TD50 of `CC(C)C/C=N/N(C)C=O` measured with rodent lifetime carcinogenesis bioassay, tumor incidence TD50.
Outgoing: 5.59
